- assayed.target: mouse 11β-HSD1 (Mus musculus, UniProt P50172)
- Construct: expressed in transfected cells
- Sequence (P50172 whole entry): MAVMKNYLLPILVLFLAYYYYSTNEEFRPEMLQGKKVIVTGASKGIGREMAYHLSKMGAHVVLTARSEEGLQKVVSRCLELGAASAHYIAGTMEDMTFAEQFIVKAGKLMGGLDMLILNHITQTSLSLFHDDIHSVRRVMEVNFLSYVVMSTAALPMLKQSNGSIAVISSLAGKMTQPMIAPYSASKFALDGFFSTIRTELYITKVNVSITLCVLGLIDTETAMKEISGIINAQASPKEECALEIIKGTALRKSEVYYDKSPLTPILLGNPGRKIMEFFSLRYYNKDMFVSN
- method.summary: Enzyme inhibitory activity assay, lysate of CHO-K1 cells stably expressing mouse 11β-HSD1, cortisol by competitive ELISA
- Format: biochemical
- reported.conditions: Table 2; cell lysate, 100 nmol/L cortisone, NADPH, 37° C. 1 hour; read-out: in vitro assay (IC50 uM) m HSD1
measurement.type: IC50 (µM)

>>> df
                                   compound                            assayed_target  reading_unit  numeric_value
0  CC1(C)C(=O)N(C2C3CC4CC(C3)CC2C4)C1c1cccc2ccccc12 (centres unmarked) [Example 45]  mouse 11β-HSD1 (Mus musculus, UniProt P50172)            µM         0.0035
1  CC1(C)C(=O)N(C2C3CC4CC(C3)CC2C4)C1c1ccccc1F (centres unmarked) [Example 39]  mouse 11β-HSD1 (Mus musculus, UniProt P50172)            µM          0.055

(a) CC1(C)C(=O)N([C@H]2C3CC4CC2C[C@](O)(C4)C3)C1c1cccc2ccccc12 (some centres unmarked) [Example 47]
(b) CC1(C)C(=O)N(C2C3CC4CC(C3)CC2C4)C1c1cc(F)cc(F)c1F (centres unmarked) [Example 35]
(c) CC1(C)C(=O)N(C2C3CC4CC(C3)CC2C4)C1c1cccc(Cl)c1 (centres unmarked) [Example 53]
Query: Reorder the items by IC50, least to greatest. Put the labels in the requested order and list them out.
Response: a, c, b
(a: 0.0056 µM, c: 0.025 µM, b: 0.61 µM)

* * *

- assayed.target: human 11β-HSD1 (Homo sapiens)
- Construct: expressed in transfected cells
- method.summary: Enzyme inhibitory activity assay, lysate of HEK293 cells stably expressing human 11β-HSD1, cortisol by competitive ELISA
- Format: biochemical
- reported.conditions: Table 1; cell lysate, 100 nmol/L cortisone, NADPH, 37° C. 1 hour; read-out: in vitro assay (IC50 uM) h HSD1
measurement.type: IC50 (µM)

# example entries with known answers
>>> print(df.to_string())
                                   molecule                 assayed_target  measurement_type  reading_unit  numeric_value
0  CC1(C)C(=O)N(C2C3CC4CC(C3)CC2C4)C1c1ccccc1Cl (centres unmarked)  human 11β-HSD1 (Homo sapiens)              IC50            µM         0.0055
1  CC1(C)C(=O)N(C2C3CC4CC(C3)CC2C4)C1c1ccc(OC(F)(F)F)cc1 (centres unmarked)  human 11β-HSD1 (Homo sapiens)              IC50            µM          0.006
2  CC1(C)C(=O)N(C2C3CC4CC(C3)CC2C4)C1c1cc(Cl)cc(Cl)c1 (centres unmarked)  human 11β-HSD1 (Homo sapiens)              IC50            µM          0.015

(A) CC1(C)C(=O)N(C2C3CC4CC(C3)CC2C4)C1c1cc(F)cc(F)c1F (centres unmarked)
(B) CC1(C)C(=O)N([C@H]2C3CC4CC2C[C@](Cl)(C4)C3)C1c1cccc2ccccc12 (some centres unmarked)
(C) CC1(C)C(=O)N([C@H]2C3CC4CC2C[C@](O)(C4)C3)C1c1cccc2ccccc12 (some centres unmarked)
(D) CC1(C)C(=O)N([C@H]2C3CC4CC2C[C@](C(N)=O)(C4)C3)C1c1cccc(Cl)c1Cl (some centres unmarked)
Query: Sort (4 molecules) by IC50: min first. // respond by listing labels in the order requested
Response: D, C, A, B
(D: 0.005 µM, C: 0.0075 µM, A: 0.053 µM, B: 0.88 µM)

* * *

- assayed.target: human 11β-HSD1 (Homo sapiens, UniProt P28845)
- Construct: expressed in transfected cells
- Sequence (P28845 whole entry): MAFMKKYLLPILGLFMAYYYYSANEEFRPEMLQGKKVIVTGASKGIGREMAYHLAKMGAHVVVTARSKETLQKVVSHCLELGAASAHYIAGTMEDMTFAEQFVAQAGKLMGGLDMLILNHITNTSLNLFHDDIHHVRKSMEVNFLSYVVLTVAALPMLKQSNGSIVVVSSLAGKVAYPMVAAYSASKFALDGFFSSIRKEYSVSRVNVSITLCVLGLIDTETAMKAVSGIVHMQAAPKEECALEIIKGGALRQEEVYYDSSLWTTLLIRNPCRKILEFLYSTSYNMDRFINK
- method.summary: Enzyme inhibitory activity assay, lysate of HEK293 cells stably expressing human 11β-HSD1, cortisol by competitive ELISA
- Format: biochemical
- reported.conditions: Table 1; cell lysate, 100 nmol/L cortisone, NADPH, 37° C. 1 hour; read-out: in vitro assay (IC50 uM) h HSD1
measurement.type: IC50 (µM)

// solved cases for IC50 follow
In [3]: df
Out[3]:
                                   molecule                            assayed_target  measurement_type  numeric_value
0  CC1(C)C(=O)N([C@H]2C3CC4CC2C[C@@](Cl)(C4)C3)C1c1cccc(Cl)c1Cl (some centres unmarked) [Example 4]  human 11β-HSD1 (Homo sapiens, UniProt P28845)              IC50          0.046
1  CC1(C)C(=O)N(C2C3CC4CC(C3)CC2C4)C1c1cccc(Cl)c1Cl (centres unmarked) [Example 2]  human 11β-HSD1 (Homo sapiens, UniProt P28845)              IC50         0.0054

(A) CC1(C)C(=O)N(C2C3CC4CC(C3)CC2C4)C1c1cccc(Cl)c1F (centres unmarked) [Example 25]
(B) CSc1ccc(C2N(C3C4CC5CC(C4)CC3C5)C(=O)C2(C)C)cc1 (centres unmarked) [Example 55]
(C) COC(=O)[C@]12CC3CC(C1)[C@@H](N1C(=O)C(C)(C)C1c1cccc4c1OCO4)C(C3)C2 (some centres unmarked) [Example 13]
(D) CC1(C)C(=O)N([C@H]2C3CC4CC2C[C@](C(N)=O)(C4)C3)C1c1cccc2cnccc12 (some centres unmarked) [Example 16]
Query: Order the 4 molecules from highest to lowest IC50. Returns: the labels listed in the requested order.
Response: D, C, A, B
(D: 0.41 µM, C: 0.051 µM, A: 0.02 µM, B: 0.0039 µM)

(I) COc1ccc(C2N([C@H]3C4CC5CC3C[C@](O)(C5)C4)C(=O)C2(C)C)c2ccccc12 (some centres unmarked) [Example 48]
(II) CC(C)c1ccc(C2N(C3C4CC5CC(C4)CC3C5)C(=O)C2(C)C)cc1 (centres unmarked) [Example 37]
Query: Name the one with the greater IC50 value, either I or II as given. Your answer should be the label attached to the chosen record.
Response: II
(II: 0.026 µM, I: 0.0088 µM)

* * *

- assayed.target: human 11β-HSD2 (Homo sapiens)
- Construct: expressed in transfected cells
- Sequence (P80365 whole entry): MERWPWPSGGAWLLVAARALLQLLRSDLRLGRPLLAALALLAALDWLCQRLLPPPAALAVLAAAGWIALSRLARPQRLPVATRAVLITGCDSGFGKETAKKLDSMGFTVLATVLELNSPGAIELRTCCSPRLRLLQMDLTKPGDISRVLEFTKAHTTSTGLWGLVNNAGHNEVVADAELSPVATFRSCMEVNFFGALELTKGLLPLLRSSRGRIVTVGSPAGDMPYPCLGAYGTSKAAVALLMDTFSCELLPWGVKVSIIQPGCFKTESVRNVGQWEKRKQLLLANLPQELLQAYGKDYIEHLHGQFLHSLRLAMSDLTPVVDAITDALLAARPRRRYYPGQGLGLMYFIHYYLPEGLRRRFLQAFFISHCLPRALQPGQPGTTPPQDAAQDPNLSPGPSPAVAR
- method.summary: Enzyme inhibitory activity assay, lysate of HEK293 cells stably expressing human 11β-HSD2, cortisol by competitive ELISA
- Format: biochemical
- reported.conditions: Table 1; cell lysate, 100 nmol/L cortisol, NAD+, 37° C. 1 hour; read-out: in vitro assay (IC50 uM) h HSD2
measurement.type: IC50 (µM)

(I) CC1(C)C(=O)N(C2C3CC4CC(C3)CC2C4)C1Cc1ccccc1 (centres unmarked)
(II) CC1(C)C(=O)N(C2C3CC4CC(C3)CC2C4)C1C1(c2ccc(Cl)cc2)CC1 (centres unmarked)
Query: IC50 comparison. Which is larger, I or II ? Provide the label of your selected option as the answer.
Response: II
(II: 4.1 µM, I: 0.28 µM)

* * *

- assayed.target: human 11β-HSD1 (Homo sapiens, UniProt P28845)
- Construct: expressed in transfected cells
- method.summary: Enzyme inhibitory activity assay, lysate of HEK293 cells stably expressing human 11β-HSD1, cortisol by competitive ELISA
- Format: biochemical
- reported.conditions: Table 1; cell lysate, 100 nmol/L cortisone, NADPH, 37° C. 1 hour; read-out: in vitro assay (IC50 uM) h HSD1
measurement.type: IC50 (µM)

Solved entries (count: 2):
>>> df
                                   molecule  reading_unit  numeric_value
0  CC1(C)C(=O)N(C2C3CC4CC(C3)CC2C4)C1c1ccc(Br)cc1 (stereo not shown) [Example 43]            µM          0.025
1  CC1(C)C(=O)N(C2C3CC4CC(C3)CC2C4)C1c1ccc(Cl)cc1 (stereo not shown) [Example 22]            µM         0.0095

(1) CC1(C)C(=O)N([C@H]2C3CC4CC2C[C@](C(=O)O)(C4)C3)C1c1cccc2c1OCO2 (stereo partly shown) [Example 14]
(2) CC1(C)C(=O)N([C@H]2C3CC4CC2C[C@](C(=O)O)(C4)C3)C1c1cccc2ccccc12 (stereo partly shown) [Example 11]
Query: Lab note: check whether 1 or 2 shows the higher recorded IC50. Please respond with the label that marks your chosen entry.
Response: 2

* * *

- assayed.target: human 11β-HSD1 (Homo sapiens, UniProt P28845)
- Construct: expressed in transfected cells
- method.summary: Enzyme inhibitory activity assay, lysate of HEK293 cells stably expressing human 11β-HSD1, cortisol by competitive ELISA
- Type: biochemical
- reported.conditions: Table 1; cell lysate, 100 nmol/L cortisone, NADPH, 37° C. 1 hour; read-out: in vitro assay (IC50 uM) h HSD1
measurement.type: IC50 (µM)

Example compounds with recorded IC50:
In [3]: df
Out[3]:
                                   compound  reading_unit  numeric_value
0  CC1(C)C(=O)N(C2C3CC4CC(C3)CC2C4)C1c1cccc(C(F)(F)F)c1F (centres unmarked)            µM          0.029
1  COC(=O)[C@]12CC3CC(C1)[C@@H](N1C(=O)C(C)(C)C1c1cccc(Cl)c1Cl)C(C3)C2 (some centres unmarked)            µM          0.013

(1) CC1(C)C(=O)N(C2C3CC4CC(C3)CC2C4)C1c1ccc(Cl)c(Cl)c1 (centres unmarked)
(2) CC1(C)C(=O)N(C2C3CC4CC(C3)CC2C4)C1c1ccccc1F (centres unmarked)
(3) CC1(C)C(=O)N(C2C3CC4CC(C3)CC2C4)C1c1cccc2c1OCCCC2 (centres unmarked)
Query: Please order the records by their reported IC50, lowest number first. Show the ranking through the labels, in the order asked for.
Response: 2, 1, 3
(2: 0.0034 µM, 1: 0.013 µM, 3: 0.026 µM)
